Target: full-length kinase/Nluc fusion proteins (Homo sapiens)
Assay: Apparent affinity (EC50) of energy transfer probes by titration onto live HEK293 cells expressing kinase/Nluc fusions (Table S1)
Details: MAPK1, Nluc N; read-out: Probe EC50
pEC50: −log10 of the molar value.
quantityName: pEC50

query: # query: pEC50 of entry CNC(=O)c1ccccc1Nc1nc(Nc2ccc(N3CCN(C(=O)CCOCCOCCOCCOCCNC(=O)CCc4ccc5n4[B-](F)(F)[N+]4=C(c6ccc[nH]6)C=CC4=C5)CC3)cc2)ncc1Cl [Energy Transfer Probe 5]
result: < 6.00

====

Target: full-length kinase/Nluc fusion proteins (Homo sapiens, UniProt P42336)
Sequence (P42336 whole entry, the tested form may be a part): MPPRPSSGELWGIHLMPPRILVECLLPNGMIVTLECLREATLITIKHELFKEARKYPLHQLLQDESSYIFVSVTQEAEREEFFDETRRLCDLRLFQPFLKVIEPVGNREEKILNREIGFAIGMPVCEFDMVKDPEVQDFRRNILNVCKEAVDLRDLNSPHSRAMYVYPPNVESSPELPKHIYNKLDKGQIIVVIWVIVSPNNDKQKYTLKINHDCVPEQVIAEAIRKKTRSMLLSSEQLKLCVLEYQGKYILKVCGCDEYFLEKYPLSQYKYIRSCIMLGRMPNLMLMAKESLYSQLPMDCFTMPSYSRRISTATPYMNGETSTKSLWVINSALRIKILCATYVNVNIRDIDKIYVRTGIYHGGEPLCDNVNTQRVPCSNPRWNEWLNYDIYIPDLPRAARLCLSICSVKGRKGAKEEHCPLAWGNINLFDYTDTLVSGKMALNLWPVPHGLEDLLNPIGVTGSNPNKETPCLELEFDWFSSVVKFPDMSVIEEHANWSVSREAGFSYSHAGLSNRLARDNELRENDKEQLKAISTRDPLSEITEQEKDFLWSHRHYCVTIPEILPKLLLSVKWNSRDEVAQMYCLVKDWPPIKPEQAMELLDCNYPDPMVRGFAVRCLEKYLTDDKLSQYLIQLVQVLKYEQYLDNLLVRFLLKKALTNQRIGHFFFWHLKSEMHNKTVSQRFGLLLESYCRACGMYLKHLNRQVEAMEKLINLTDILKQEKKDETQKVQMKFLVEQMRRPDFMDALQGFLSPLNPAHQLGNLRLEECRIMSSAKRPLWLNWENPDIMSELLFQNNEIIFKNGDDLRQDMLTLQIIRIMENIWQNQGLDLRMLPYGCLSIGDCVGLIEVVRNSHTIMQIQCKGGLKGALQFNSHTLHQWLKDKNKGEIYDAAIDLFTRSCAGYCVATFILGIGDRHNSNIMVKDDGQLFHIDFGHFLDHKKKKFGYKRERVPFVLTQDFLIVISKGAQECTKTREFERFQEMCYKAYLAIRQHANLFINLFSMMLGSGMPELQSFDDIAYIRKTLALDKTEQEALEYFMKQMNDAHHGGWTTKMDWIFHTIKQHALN
Assay: Apparent affinity (EC50) of energy transfer probes by titration onto live HEK293 cells expressing kinase/Nluc fusions (Table S1)
Conditions: PIK3CA, Nluc N; read-out: Probe EC50
quantityName: EC50 (µM)
Report the figure in µM without appending any unit label.

query: # query: EC50 of entry O=C(CCc1ccc2n1[B-](F)(F)[N+]1=C(c3ccc[nH]3)C=CC1=C2)N1CCN(Cc2cc3nc(-c4cccc(O)c4)nc(N4CCOCC4)c3s2)CC1 [Energy Transfer Probe 3]
result: 0.1

Reference source: paper PMC5814754
